system: Streptococcus pneumoniae; assay: Antibacterial activity against penicillin-resistant Streptococcus pneumoniae 671319; assay type: functional
I'd be grateful if you could share measured log10(MIC) for these entries.
Base-10 log of MIC, unit µg/mL.

Input line: Report measured log10(MIC); entry is C[C@@H](O)[C@H]1C(=O)N2C(C(=O)O)=C(SCc3ccc4ccccc4c3)[C@H](C)[C@H]12
Output line: -1.22

Input line: For the compound C[C@@H](O)[C@H]1C(=O)N2C(C(=O)O)=C(COc3ccc4c(c3)CCC4)[C@H](C)[C@H]12 , give its reported log10(MIC).
Output line: 0.00

Input line: Recall and state the measured log10(MIC) for C[C@@H](O)[C@H]1C(=O)N2C(C(=O)O)=C(COc3ccc4occ(CN(C)C)c(=O)c4c3)[C@H](C)[C@H]12 .
Output line: -0.92

Input line: Consider the compound C[C@@H](O)[C@H]1C(=O)N2C(C(=O)O)=C(CNC(=O)c3ccc4ccccc4c3)[C@H](C)[C@H]12 and give its recorded log10(MIC).
Output line: 0.60

Input line: Quick one: give measured log10(MIC) for C[C@@H](O)[C@H]1C(=O)N2C(C(=O)O)=C(CSc3ccc4ccccc4n3)[C@H](C)[C@H]12
Output line: -1.22

Input line: Report log10(MIC), nothing else, for this compound: C[C@@H](O)[C@H]1C(=O)N2C(C(=O)O)=C(CSc3ccc4c(c3)CCC4=O)[C@H](C)[C@H]12
Output line: -1.52

Input line: Return the recorded log10(MIC) value; entry: C[C@@H](O)[C@H]1C(=O)N2C(C(=O)O)=C(COc3cccc4c3C/C(=C\c3cccs3)C4=O)[C@H](C)[C@H]12
Output line: -1.52
